Value source: the MegaScale stability set (Tsuboyama et al. 2023)

Could you please report measured folding stability dG for the items listed next?
B1: EHEE_rd2_0601 (parent)
chain: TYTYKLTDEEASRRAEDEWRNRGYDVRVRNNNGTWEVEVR

- Variants of: B1
- Assay Notes: folding stability dG (cDNA display proteolysis); higher = more stable
- Condition: PBS, room temperature
Expressed in kcal/mol, but write only the number.

The reported folding stability dG of the variant V26A was 0.393

The reported folding stability dG of the variant D8K was -0.424

The reported folding stability dG of the variant R40D was 0.685

The reported folding stability dG of the variant R27S was 1.69

The reported folding stability dG of the variant N32G was 1.39

The reported folding stability dG of the variant A15G was -0.371

The reported folding stability dG of the variant R27N was 1.36

The reported folding stability dG of the variant N31A was 0.996

The reported folding stability dG of the variant T34N was 0.99

The reported folding stability dG of the variant T3G was 0.036

The reported folding stability dG of the variant E10A was 1.75
